Test system: RPA70 mRNA
Assay: RPA70 mRNA expression in A549 cells, Northern blot
Type: cell-based, human
Conditions: 400 nM oligonucleotide with LIPOFECTIN, RNA 24 h after addition
In the oligonucleotide strings, read from the 5' end, every base follows the letter of its sugar. An asterisk marks phosphorothioate; unmarked linkages are phosphodiester. Other units and linkages are bracketed, terminal groups are in braces. A string of capitals states the bases alone. d = 2'-deoxy (DNA)
measurement-kind: % mRNA EXPRESSION (%)
# unit: % | format: bare number

[
  {
    "substance": "ISIS 12784: phosphorothioate oligodeoxynucleotide GATTCCATTCTGCCTATTTG, SEQ ID NO 9, 3'-UTR 1951-1970 (dG*dA*dT*dT*dC*dC*dA*dT*dT*dC*dT*dG*dC*dC*dT*dA*dT*dT*dT*dG; antisense)",
    "measurement-kind": "% mRNA EXPRESSION",
    "measured-result": 43
  },
  {
    "substance": "ISIS 12778: phosphorothioate oligodeoxynucleotide CCCACCCGGGTCCCGCGCCG, SEQ ID NO 3, targets RPA70 5'-UTR 0001-0020 (dC*dC*dC*dA*dC*dC*dC*dG*dG*dG*dT*dC*dC*dC*dG*dC*dG*dC*dC*dG)",
    "measurement-kind": "% mRNA EXPRESSION",
    "measured-result": 2100
  },
  {
    "substance": "ISIS 12781: phosphorothioate oligodeoxynucleotide TAGCTTCAGCAGACTCCTGG, SEQ ID NO 6, coding 1665-1684, complementary to T variance at 1674 (dT*dA*dG*dC*dT*dT*dC*dA*dG*dC*dA*dG*dA*dC*dT*dC*dC*dT*dG*dG)",
    "measurement-kind": "% mRNA EXPRESSION",
    "measured-result": 24
  }
]

# context switch: different substance, same % mRNA EXPRESSION
What value of % mRNA EXPRESSION has been recorded for this entry: ISIS 12788: phosphorothioate oligodeoxynucleotide CAGAGGGAGTGACTGGTCTT, SEQ ID NO 13, 3'-UTR 2155-2174 (dC*dA*dG*dA*dG*dG*dG*dA*dG*dT*dG*dA*dC*dT*dG*dG*dT*dC*dT*dT; antisense) 43

----------
Entries and their % mRNA EXPRESSION values follow.
Tested on: RPA70 mRNA
Test: RPA70 mRNA expression in A549 cells, Northern blot
Format: cell-based, human
Details: 400 nM oligonucleotide with LIPOFECTIN, RNA 24 h after addition
Experimental: Antisense treatments were performed with phosphorothioate oligodeoxynucleotides. Cells were cultured in 6-well plates to 60-80% confluency for use in oligonucleotide treatments. […] Target mRNA levels were assessed by Northern blotting with target specific random primed [α-^32 P]dCTP-labeled cDNA probes, as described below. cDNAs for probes were obtained by specific RT-PCR of cellular RNAs. […] RNA on the blots was quantified by phosphorimaging on a Fuji FLA-2000. […]
In the oligonucleotide strings, read from the 5' end, every base follows the letter of its sugar. An asterisk marks phosphorothioate; unmarked linkages are phosphodiester. Other units and linkages are bracketed, terminal groups are in braces. A string of capitals states the bases alone. d = 2'-deoxy (DNA)
Entry format: amount then unit.

[
  {
    "substance": "ISIS 12780: phosphorothioate oligodeoxynucleotide TGGCCGACCATGGCTCCACC, SEQ ID NO 5, targets RPA70 AUG 0061-0080 (dT*dG*dG*dC*dC*dG*dA*dC*dC*dA*dT*dG*dG*dC*dT*dC*dC*dA*dC*dC)",
    "system-name": "RPA70 mRNA",
    "% mRNA EXPRESSION": "18%"
  }
]

# context switch: different substance, same % mRNA EXPRESSION
What value of % mRNA EXPRESSION has been recorded for this entry: ISIS 12787: phosphorothioate oligodeoxynucleotide GAGCGTATTTTCCTTTGCCT, SEQ ID NO 12, 3'-UTR 2080-2099 (dG*dA*dG*dC*dG*dT*dA*dT*dT*dT*dT*dC*dC*dT*dT*dT*dG*dC*dC*dT; antisense) 18%
